target: UniProt P35354; assay: In vitro COX-2 inhibition assay (inhibitor screening kit); type: biochemical; parameters: purchased Beyotime Biotechnology (Shanghai, China) S0168
Sequence (P35354 18-604): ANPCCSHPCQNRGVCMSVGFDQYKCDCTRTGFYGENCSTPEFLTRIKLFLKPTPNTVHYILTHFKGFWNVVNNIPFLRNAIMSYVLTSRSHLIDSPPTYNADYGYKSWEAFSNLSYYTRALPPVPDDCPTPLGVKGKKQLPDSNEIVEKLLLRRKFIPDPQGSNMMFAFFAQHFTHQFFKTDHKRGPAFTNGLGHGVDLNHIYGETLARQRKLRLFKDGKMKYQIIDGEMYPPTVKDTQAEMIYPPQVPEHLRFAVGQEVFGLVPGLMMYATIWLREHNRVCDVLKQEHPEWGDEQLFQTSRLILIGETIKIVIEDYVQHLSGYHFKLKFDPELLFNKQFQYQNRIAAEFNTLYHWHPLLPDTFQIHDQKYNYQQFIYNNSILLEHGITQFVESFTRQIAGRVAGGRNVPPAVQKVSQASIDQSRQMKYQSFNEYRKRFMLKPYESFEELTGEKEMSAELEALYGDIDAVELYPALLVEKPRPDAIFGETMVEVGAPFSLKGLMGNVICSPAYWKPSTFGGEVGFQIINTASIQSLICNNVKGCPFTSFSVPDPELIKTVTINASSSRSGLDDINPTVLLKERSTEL
readout-name: pIC50
A value of pIC50 is the negative decimal logarithm of a concentration given in moles per litre.

Task item: Hello, I am looking for reported pIC50 with UniProt P35354 for O=c1cc(-c2ccc(O)cc2)oc2c([C@@H]3O[C@H](CO)[C@@H](O)[C@H](O)[C@H]3O)c(O)cc(O)c12 [Compound 8, Vitexin (Apigenin 8-C-glucoside)] . Could you help?
Reply: 4.55

Source listed as paper PMC9465062.
